These data points were gathered from PubChem BioAssay (NCATS).

Test Protocol: Cellular Toxicity (caspase-3) BJ (AID 658);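 also: cells exposed to compound for 16 hours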
Condition Parameters: BJ fibroblasts, luminescence, normalized: DMSO 0%, staurosporine 100%; series mostly up to 91.7 µM
Calls of active or inactive are those of the source. Calls follow the shape of the dose curve; as a rule, active = well fitted curve in the direction sought with a large enough effect; inconclusive = small, poorly fitted or top-dose-only effect, or another doubt; inactive = no such curve, though single readings can be large or run the other way.

>  <Smiles Structure>
C[C@@H]1C[C@@H]([C@H](O)CC2CC(=O)NC(=O)C2)C(=O)[C@@H](C)C1

>  <outcome>
inactive

$$$$
>  <Smiles Structure>
COP(=O)(OC)OC=C(Cl)Cl

>  <outcome>
inactive

$$$$
>  <Smiles Structure>
CNC(=O)Oc1cccc2ccccc12

>  <outcome>
inactive

$$$$
>  <Smiles Structure>
CC[n+]1c(-c2ccccc2)c2cc(N)ccc2c2ccc(N)cc21

>  <outcome>
inactive

$$$$

###

Condition Parameters: Ebola virus entry assay, green channel fluorescence
Entries with a potency or affinity are not part of this list. The source made the active and inactive calls. Square brackets hold non-standard residues; d marks the D form. Peptide text beside a SMILES is read from it. * marks the point of attachment. Sta = CC(C)C[C@H](N)[C@@H](O)CC(=O)O; Isovaleryl = CC(C)CC(=O)*
Readout Label: outcome

>  <Compound>
CCCCCOc1ccc(C2SC(=O)NC2=O)cc1OCC (stereo not given)

>  <Reported Measurement>
inactive

$$$$
>  <Compound>
O=C(CCCCCCCCC#CI)Oc1ccccc1

>  <Reported Measurement>
inactive

$$$$
>  <Compound>
CCCc1nc(C)c2c(=O)[nH]c(-c3cc(S(=O)(=O)N4CCN(CC)CC4)ccc3OCC)nn12

>  <Reported Measurement>
inactive

$$$$
>  <Compound>
COC(=O)c1cc(S(N)(=O)=O)ccc1OC

>  <Reported Measurement>
inactive

$$$$
>  <Compound>
Cn1c(=O)c2c(ncn2CC2OCCO2)n(C)c1=O

>  <Reported Measurement>
inactive

$$$$
>  <Compound>
N[C@@H](Cc1c[nH]c2ccc(O)cc12)C(=O)O

>  <Reported Measurement>
inactive

$$$$
>  <Compound>
COc1ccc2c3c1O[C@H]1[C@@H](O)C=C[C@H]4[C@@H](C2)N(C)CC[C@@]341

>  <Reported Measurement>
inactive

$$$$
>  <Compound>
Nc1nc(=O)n([C@@H]2O[C@H](CO)[C@@H](O)[C@@H]2F)cc1I

>  <Reported Measurement>
inactive

$$$$
>  <Compound>
CC(C)=CCOc1ccc(/C=C/C(=O)c2ccc(OCC=C(C)C)cc2OCC(=O)O)cc1

>  <Reported Measurement>
inactive

$$$$
>  <Compound>
C[C@]12CC[C@H]3[C@@H](CCC4=CC(=O)CC[C@@H]43)[C@@H]1CC[C@@H]2O

>  <Reported Measurement>
inactive

$$$$
>  <Compound>
C=CC[N+]1([C@H]2C[C@H]3[C@@H]4CC[C@H]5C[C@H](OC(C)=O)[C@@H](N6CCCCC6)C[C@]5(C)[C@H]4CC[C@]3(C)[C@H]2OC(=O)CC)CCCCC1

>  <Reported Measurement>
inactive

$$$$
>  <Compound>
Cc1cc(=O)oc2cc(O)ccc12

>  <Reported Measurement>
inactive

$$$$
>  <Compound>
CCC(=O)O[C@H]1CC[C@H]2[C@@H]3CCC4=CC(=O)CC[C@]4(C)[C@H]3CC[C@]12C

>  <Reported Measurement>
inactive

$$$$
>  <Compound>
C[C@]12CC[C@@H]3c4ccc(O)cc4CC[C@H]3[C@@H]1CCC2=O

>  <Reported Measurement>
inactive

$$$$
>  <Compound>
C[C@H]1C(=O)O[C@@H]2CCN3CC=C(COC(=O)[C@](C)(O)[C@]1(C)O)[C@H]23

>  <Reported Measurement>
inactive

$$$$
>  <Compound>
Cc1c(Cl)cccc1Nc1ccccc1C(=O)O

>  <Reported Measurement>
inactive

$$$$
>  <Compound>
CCC1(CC)C(=O)NC(=O)NC1=O

>  <Reported Measurement>
inactive

$$$$
>  <Compound>
CCCCC1C(=O)N(c2ccccc2)N(c2ccccc2)C1=O

>  <Reported Measurement>
inactive

$$$$
>  <Compound>
CC(C)CC(=O)N[C@H](C(=O)N[C@H](C(=O)N[C@@H](CC(C)C)[C@@H](O)CC(=O)N[C@@H](C)C(=O)N[C@@H](CC(C)C)[C@@H](O)CC(=O)O)C(C)C)C(C)C (Isovaleryl-VV[Sta]A[Sta]-OH)

>  <Reported Measurement>
inactive

$$$$
>  <Compound>
C[N+](C)(C)CCOC(=O)C(O)(c1ccccc1)c1ccccc1

>  <Reported Measurement>
inactive

$$$$
